Target: human MRGPRX4 (Homo sapiens, UniProt Q96LA9)
Sequence (Q96LA9 whole entry): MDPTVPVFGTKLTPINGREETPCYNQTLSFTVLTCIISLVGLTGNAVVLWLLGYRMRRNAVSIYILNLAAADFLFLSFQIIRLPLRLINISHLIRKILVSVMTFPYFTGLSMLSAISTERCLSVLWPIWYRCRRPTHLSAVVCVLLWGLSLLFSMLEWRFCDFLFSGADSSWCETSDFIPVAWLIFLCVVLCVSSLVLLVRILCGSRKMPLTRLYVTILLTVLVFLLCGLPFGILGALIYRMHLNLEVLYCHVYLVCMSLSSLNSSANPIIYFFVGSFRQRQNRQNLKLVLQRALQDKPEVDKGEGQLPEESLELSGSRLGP
Assay: MRGPRX4 antagonist calcium (FLIPR, Fluo-8) assay in HEK293T cells stably expressing human MRGPRX4, agonist 0.2 μM deoxycholic acid-3-phosphoric acid
Settings: HEK293T cells stably expressing human MRGPRX4; antagonist mode; top conc. 30 μM, ten 3-fold serial dilutions; C may also mean <40% inhibition at 2 μM; read-out: Antagonist activity (IC50 class)
pIC50: −log10 of the molar value.
reported_metric: pIC50

> print(dat)
                                   compound        result
1  Fc1ccc(C2Cc3cc(C(F)(F)F)ccc3O2)cc1-c1nnn[nH]1 (stereo not drawn) [Compound 98]        > 6.00
2  O=C(O)c1cccc(C2Cc3cc(F)cc(F)c3O2)c1F (stereo not drawn) [Example 82]        < 5.00
3  Cn1c(-c2ccc(C(=O)O)cc2F)cc2ccc(C(F)(F)F)cc21 [Example 14]  5.00 to 6.00

stdin: Give pIC50 for Cn1c(-c2ccc(C(=O)O)cc2)cc2ccc(C(=O)O)cc21 [Example 9]
stdout: < 5.00

stdin: Give pIC50 for Fc1ccc(C2Cc3c(ccc4ccccc34)O2)cc1-c1nnn[nH]1 (stereo not drawn) [Compound 97]
stdout: > 6.00

stdin: Give pIC50 for COc1cc(C(=O)O)cc(C2Cc3cc(C(F)(F)F)ccc3O2)c1 (stereo not drawn) [Example 58]
stdout: < 5.00

stdin: Give pIC50 for O=C(O)c1cccc(C2Cc3cc(Cl)ccc3O2)c1F (stereo not drawn) [Example 63]
stdout: 5.00 to 6.00

stdin: Give pIC50 for O=C(O)c1ccc(-c2cc3ccc(C(F)(F)F)cc3[nH]2)cc1 [Example 3]
stdout: < 5.00

stdin: Give pIC50 for O=C(O)c1c(F)ccc(C2Cc3cc(C(F)(F)F)ccc3O2)c1F (stereo not drawn) [Example 85]
stdout: < 5.00

stdin: Give pIC50 for O=C(O)c1ccc(-c2[nH]c3cc(C(F)(F)F)ccc3c2F)cc1 [Example 38]
stdout: < 5.00

stdin: Give pIC50 for CC(C)n1c(-c2ccc(C(=O)O)cc2)cc2cc(Cl)c(Cl)cc21 [Example 11]
stdout: < 5.00

stdin: Give pIC50 for O=C(O)c1ccc(F)c(C2Cc3cc(C(F)(F)F)ccc3O2)c1 (stereo not drawn) [Example 54]
stdout: < 5.00

stdin: Give pIC50 for CCCn1c(-c2ccc(C(=O)O)c(F)c2)cc2ccc(C(F)(F)F)cc21 [Example 19]
stdout: 5.00 to 6.00

stdin: Give pIC50 for Fc1ccc([C@@H]2Cc3cc(C(F)(F)F)ccc3O2)cc1-c1nnn[nH]1 [Compound 104]
stdout: > 6.00

stdin: Give pIC50 for O=C(O)c1ccc(C2Cc3ccc(C(F)(F)F)cc3N2)cc1 (stereo not drawn) [Example 41]
stdout: < 5.00

stdin: Give pIC50 for CCCn1c(-c2ccc(C(=O)O)cc2)cc2ccc(C(F)(F)F)cc21 [Example 16]
stdout: 5.00 to 6.00

stdin: Give pIC50 for CN(C)C(=O)c1cccc(C2Cc3cc(C(F)(F)F)ccc3O2)c1F (stereo not drawn) [Example 75]
stdout: < 5.00

stdin: Give pIC50 for O=C(O)c1cc(C2Cc3cc(C(F)(F)F)ccc3O2)ccc1F (stereo not drawn) [Example 53]
stdout: 5.00 to 6.00

stdin: Give pIC50 for CC1(c2cccc(C(=O)O)c2F)Cc2cc(C(F)(F)F)ccc2O1 (stereo not drawn) [Example 86]
stdout: 5.00 to 6.00

stdin: Give pIC50 for CCOP(=O)(O)c1ccc(-c2cc3ccc(C(F)(F)F)cc3n2C)cc1 [Example 72]
stdout: < 5.00

stdin: Give pIC50 for O=C(O)c1cccc(-c2cc3ccc(C(F)(F)F)cc3o2)c1 [Example 51]
stdout: < 5.00

stdin: Give pIC50 for CC(C)Cn1c(-c2ccc(C(=O)O)cc2)cc2ccc(C(F)(F)F)cc21 [Example 17]
stdout: 5.00 to 6.00

stdin: Give pIC50 for Cn1cc(-c2cc(C(=O)O)cc(C3Cc4cc(C(F)(F)F)ccc4O3)c2)cn1 (stereo not drawn) [Example 69]
stdout: < 5.00

stdin: Give pIC50 for Fc1ccc([C@@H]2Cc3c(ccc4ccccc34)O2)cc1-c1nnn[nH]1 [Compound 103]
stdout: > 6.00

stdin: Give pIC50 for O=C(O)c1cccc(C2Cc3cccc(C(F)(F)F)c3O2)c1F (stereo not drawn) [Example 83]
stdout: < 5.00

stdin: Give pIC50 for O=C(O)c1cc(Br)cc(-c2nc3cc(C(F)(F)F)c(Cl)cc3s2)c1 [Example 48]
stdout: < 5.00
